Each recorded value in this set is attributed to the supplement of paper PMC10724198.

tested on: Saccharomyces cerevisiae; assay: protein stability index of tFT-peptide fusion (C-terminal peptide) (PSI (0-1 scale)); higher = more stable (slower turnover); details: genetic background: wild type; temperature: 30 C
Recorded protein stability index, one value per entry.
Keep the answer to the number alone.

{"columns": ["sequence_string", "study_system", "protein stability index"],
 "data": [
  ["RGAPLSPPPPRS", "Saccharomyces cerevisiae", 0.714],
  ["KIKSEFNMIGKN", "Saccharomyces cerevisiae", 0.693]
]}

Given item "ESPTWVVLEGLG" , the value recorded as its protein stability index is 0.7

Value of measured protein stability index for the entry "RCYTLFLGRSRV" : 0.68

Entry "LMGASAAFIKKG" — recorded protein stability index = 0.601

The sequence "QKQQRIKQTAKK" showed protein stability index equal to 0.703

The sequence "AEKKEERQRTSN" showed protein stability index equal to 0.681

Kindly note the recorded protein stability index for "KIKKKKKKNKEH" , which is 0.591

According to the records, this sequence "SSPLWCFRLVFF" displays protein stability index of 0.583

GET /value?item= "CRGVGGRTVING" &field=protein stability index returns 0.692

The reported value for "AGPATSSSPPVS" in terms of protein stability index is 0.688

Just so you know, measured protein stability index for "IGVGVGIDGLPW" came out at 0.693

Documented protein stability index of "APPTTPPPGTHP" : 0.696

The reported value for "PSPIHSRQTQWF" in terms of protein stability index is 0.707

Looking up "ERTSSSWPPPAV" , I see its protein stability index listed as 0.72

Entry "LSGYTLRRIISQ" — recorded protein stability index = 0.704

Form: sequence = "GEFARSTRLAWV" ; protein stability index = 0.682

Per the record, "RPQARAQRRQAC" has protein stability index of 0.583

====

test system: Saccharomyces cerevisiae; test: protein stability index of tFT-peptide fusion (C-terminal peptide) (PSI (0-1 scale)); higher = more stable (slower turnover); details: genetic background: das1 deletion; temperature: 30 C
parameter: protein stability index
Reply briefly: the number, and no unit.

A selection of reference data follows.
{"columns": ["sequence_string", "protein stability index"],
 "data": [
  ["MHSNFQNLFNLK [CLB5 C-terminal 12 aa]", 0.708],
  ["TGLLRGSQKTQD [RPL2A C-terminal 12 aa]", 0.702],
  ["TVSDGGSIFECS [RAD28 C-terminal 12 aa]", 0.713]
]}

Let's switch to this sequence now.
Note to self: protein stability index recorded for REETEKLNINKD [YAR1 C-terminal 12 aa] was 0.71

====

test system: Saccharomyces cerevisiae; test: protein stability index of tFT-peptide fusion (C-terminal peptide) (PSI (0-1 scale)); higher = more stable (slower turnover); details: genetic background: das1 deletion; temperature: 30 C
parameter: protein stability index
Kindly provide the number alone.

In the examples that follow, each entry is paired with its recorded protein stability index.
{"columns": ["sequence_string", "recorded_value"],
 "data": [
  ["IKNSSLAVLHST [YKL162C C-terminal 12 aa]", 0.705],
  ["DGTTSKDSEKKK [COA4 C-terminal 12 aa]", 0.708],
  ["GDLVNAIMSLSK [EGD2 C-terminal 12 aa]", 0.696]
]}

Record QIVGLLKLLASI [PEX15 C-terminal 12 aa] ; system Saccharomyces cerevisiae; protein stability index = 0.68

Saccharomyces cerevisiae assay, sequence KVNGDIYRLPPS [MBA1 C-terminal 12 aa] , recorded protein stability index = 0.689

I looked up DDEIDSEEDENA [SDD3 C-terminal 12 aa] and its protein stability index for Saccharomyces cerevisiae was 0.69

====

tested on: Saccharomyces cerevisiae; assay: protein stability index of tFT-peptide fusion (C-terminal peptide) (PSI (0-1 scale)); higher = more stable (slower turnover); conditions: genetic background: wild type; temperature: 30 C
Quick list: protein stability index per entry.
Number only, no unit.

Completed entries (count: 3):
{"columns": ["sequence_string", "study_system", "protein stability index"],
 "data": [
  ["GRGGLGGWEWDR", "Saccharomyces cerevisiae", 0.712],
  ["FGGSTPVLKPTQ", "Saccharomyces cerevisiae", 0.719],
  ["KETLRMKFNSWK", "Saccharomyces cerevisiae", 0.676]
]}

Note to self: protein stability index recorded for "LSPPSSPPPTPS" was 0.714

Lab book: protein stability index of "SVRFPPTFTMTL" noted as 0.701

Summary for this sequence, "WYRIPGASHGPP" : protein stability index is 0.662

Consider "KIKQIKINNKIN" . Its measured protein stability index is 0.157

// sample "RRSVQLQSALFI" , its protein stability index was 0.736

Query "GGFRWLGGSAPA" yields protein stability index of 0.727

Value of protein stability index reported for the sequence "EWTTTVLGGQLR" is 0.696

According to the records, this sequence "VRISGLSALPHF" displays protein stability index of 0.708

protein stability index reported for this sequence "KKGRKKEGKREK" : 0.621

Reported protein stability index ( "GRKVPQRRQSAR" ) = 0.749

Lab book: protein stability index of "SFAVSSDYLFII" noted as 0.401

Reported protein stability index ( "LPVSLWLVCSFF" ) = 0.324

// sample "TGLSFIRCLDFK" , its protein stability index was 0.688

Documented protein stability index of "WQWDMESKRKKE" : 0.706

protein stability index reading for "LALHPPPRVPPT" : 0.701

====

tested on: Saccharomyces cerevisiae; test: protein stability index of tFT-peptide fusion (C-terminal peptide) (PSI (0-1 scale)); higher = more stable (slower turnover); conditions: genetic background: wild type; temperature: 30 C
parameter: protein stability index

Look over these answered cases.
{"columns": ["sequence_string", "recorded_value"],
 "data": [
  ["HLEKKEPKSRKK [YDL129W C-terminal 12 aa]", 0.689],
  ["DACIKRWNVVLE [AIP1 C-terminal 12 aa]", 0.71],
  ["ACDNSGLIGIFQ [VPS15 C-terminal 12 aa]", 0.681],
  ["IRMYLGSSLDIE [SRX1 C-terminal 12 aa]", 0.682]
]}

Data point: LVSNSDTNIVWP [YMR247W-A C-terminal 12 aa] ; protein stability index = 0.712

Record AGIRKRDWDSTQ [RFM1 C-terminal 12 aa] . Reported protein stability index: 0.691

Measured protein stability index of LPNTISSETFLK [SCEI C-terminal 12 aa] : 0.702

// field: protein stability index; key: VKQMRKKKDKGD [MSB3 C-terminal 12 aa] ; value = 0.691

For KILTQHLQDLQS [RKM2 C-terminal 12 aa] the sequence record lists protein stability index as 0.714

For this sequence ( AWDKFKLQNDIN [SWA2 C-terminal 12 aa] ), measured protein stability index is 0.698

====

tested on: Saccharomyces cerevisiae; test: protein stability index of tFT-peptide fusion (C-terminal peptide) (PSI (0-1 scale)); higher = more stable (slower turnover); details: genetic background: das1 deletion; temperature: 30 C
parameter: protein stability index
Please give the numeric answer without any surrounding text.

Examples from the recorded data:
{"columns": ["sequence_string", "protein stability index"],
 "data": [
  ["QDELDAMKEMGF [CSM3 C-terminal 12 aa]", 0.698],
  ["LDDTPAPTATNL [NUD1 C-terminal 12 aa]", 0.686],
  ["PLSASWCTSLVT [YHR173C C-terminal 12 aa]", 0.696],
  ["LSKKTSGTHTTH [YBR182C-A C-terminal 12 aa]", 0.681],
  ["HISLKCIVYKEY [YER135C C-terminal 12 aa]", 0.638]
]}

Please fill in: protein stability index reported for DILGSLLAKKRK [MRE11 C-terminal 12 aa] = 0.681

response.value for AFLKIFENAMPN [ADD37 C-terminal 12 aa] (field: protein stability index) = 0.725

Briefly, protein stability index measured for EMEKNKLKRKRN [YNG2 C-terminal 12 aa] : 0.668

Quick note, protein stability index for TASGEDSHLLKQ [BRL1 C-terminal 12 aa] landed at 0.669

sequence AWDKFKLQNDIN [SWA2 C-terminal 12 aa] , protein stability index observed: 0.736

# protein stability index (sequence: LDSVFSKFCIGK [MSS1 C-terminal 12 aa] ) is 0.7

Record summary for KPMAYSNGGFGL [PPT1 C-terminal 12 aa] : reported protein stability index = 0.674

Reported protein stability index of RPWYVRQFHFWC [TAT2 C-terminal 12 aa] : 0.713

Note to self: protein stability index recorded for NGEIMTCWEWKE [HEH2 C-terminal 12 aa] was 0.691

Entry VKQMRKKKDKGD [MSB3 C-terminal 12 aa] ; protein stability index = 0.688

Query VKIATSILGKKL [PGS1 C-terminal 12 aa] yields protein stability index of 0.685

HNLHSYEKRLHN [IMD2 C-terminal 12 aa] yielded protein stability index of 0.723

Note to self: protein stability index recorded for LAPLQFSGIVRS [YDR274C C-terminal 12 aa] was 0.677

The measured protein stability index associated with EATYKVLQQLHK [ADE8 C-terminal 12 aa] reads 0.71

Note to self: protein stability index recorded for IFCFDNYRSCYC [YKL031W C-terminal 12 aa] was 0.707
